Ki: recorded values
- assayTarget: PCT-65 receptor (Rattus norvegicus, UniProt P32305)
- Construct: expressed in transfected cells; host or cells: COS-7 cells (transient, calcium phosphate, pSRα-65)
- Sequence (P32305 45-448): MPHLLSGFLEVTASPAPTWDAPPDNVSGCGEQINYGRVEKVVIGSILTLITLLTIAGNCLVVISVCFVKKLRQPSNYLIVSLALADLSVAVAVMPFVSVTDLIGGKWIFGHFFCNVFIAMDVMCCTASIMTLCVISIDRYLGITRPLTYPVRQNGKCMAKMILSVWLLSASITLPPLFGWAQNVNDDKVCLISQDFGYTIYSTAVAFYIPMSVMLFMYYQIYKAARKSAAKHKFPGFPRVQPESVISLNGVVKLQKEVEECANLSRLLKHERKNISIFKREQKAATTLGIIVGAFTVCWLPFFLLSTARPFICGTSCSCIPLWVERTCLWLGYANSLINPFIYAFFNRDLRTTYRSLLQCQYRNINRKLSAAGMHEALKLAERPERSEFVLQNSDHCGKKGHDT
- runDescription: [3H]-LSD competition binding to PCT-65 receptor in membranes of transfected COS-7 cells
- assaySetup: competing with [3H]-LSD (1.5-2.2 nM), COS-7 membranes, pH 7.4, 37 °C, 60 min; geometric mean ± SEM (n=3)
Numeric answer only, unit nM assumed.

Data request: Short answer please: Ki, PCT-65 receptor (Rattus norvegicus, UniProt P32305), entry CC[C@@H](CO)NC(=O)[C@@H]1C=C2c3cccc4c3c(cn4C)C[C@H]2N(C)C1 [Methysergide]
Data returned: 12.6
